The reported numbers originate from patent US20240272170A1.

# tested-system: IA peptide (Octet assay of PS557 variants)
# experiment-notes: Octet (BLI), peptide on sensor, response after 200 s association
True if Octet response is below 9 nm. False if not; exact matches included in False.

binder="PS831 (designed binder) MPTAASATESAIEDTPAPARPEVDGRTKPKRQPRYHVVLWNDDDHTYQYVVVMLQSLFGHPRKRGYRLAKEMDTLGRVIVLTTTREHAELKRDQIHAFGYDRLLARSKGSMKASIEAEE" group=False
binder="PS828 (designed binder) MPTAASATESAIEDTPAPARPEVDGRTKPKRQPRYHVVLWDDDDHTYQYVVVMLQSLFGHPRERGYRLAKEVDTLGRVIVLTTTREHAELKRDQIHAFGYDRLLARSKGSMKASIEAEE" group=True
binder="PS797 (designed binder) MPTAASATESAIEDTPAPARPEVDGRTKPKRQPRYHVVLWDDDDHTYQYVVVMLQSLFGHPPERGYRLAKEMDTLGRVIVLTTTREHAELKRDQIHAFGYDRLLARSKGSMKASIEAEE" group=False
binder="PS796 (designed binder) MPTAASATESAIEDTPAPARPEVDGRTKPKRQPRYHVVLWDDDDHTYQYVVVMLQSLFGHPPERGYRLAKEMDTQGRVIVLTTTREHAELKRDQIHAFGYDRLLARSKGSMKASIEAEE" group=False
binder="PS838 (designed binder) MPTAASATESAIEDTPAPARPEVDGRTKPKRQPRYHVVLWDDDDHTYQYVVVMLQSLFGHPRERGYRLAKEMDTQGRVIVLTTTREHAELKRDQIHAFGYDRLLARSKGSMKASIEAEE" group=False
binder="PS829 (designed binder) MPTAASATESAIEDTPAPARPEVDGRTKPKRQPRYHVVLWDDDDHTYQYVVVMLQSLFGHPRERGYRLAKEMDTLGRVIVLTTTREHAELKRDQIHAFGYDRLLARSKGSMKASIEAEE" group=True
